System: Poliovirus 3
experiment.notes: Antiviral activity against Poliovirus 3 infected in human HeLa-RW cells assessed as protection against virus-induced cytopathic effect after 3 to 4 days by crystal violet staining-based spectrophotometric method
Assay type: functional, cell-based
cond: Enterovirus C
pEC50: −log10 of the molar value.
pEC50: recorded values

Solved entries (count: 3):
compound.structure.string: CC(C)n1ncc2c(C(=O)Nc3ccncc3)cc(-c3ccsc3)nc21
pEC50: < 5.00

compound.structure.string: CC(C)n1ncc2c(C(=O)Nc3ccccc3C(F)(F)F)cc(-c3cccs3)nc21
pEC50: < 5.00

compound.structure.string: CC(C)n1ncc2c(C(=O)Nc3ccc(F)cc3)cc(-c3ccco3)nc21
pEC50: < 4.60

Consider the compound shown here: "CC(C)n1ncc2c(C(=O)Nc3ccc(C(F)(F)F)cc3)cc(-c3cccs3)nc21" What is its recorded pEC50?
< 4.60

###

System: Poliovirus 1
experiment.notes: Antiviral activity against Poliovirus 1 infected in human HeLa-RW cells assessed as protection against virus-induced cytopathic effect after 3 to 4 days by crystal violet staining-based spectrophotometric method
Type: functional, cell-based
cond: Enterovirus C
recorded.endpoint: EC50 (µM)
Quick note: give the figure in µM, leave out the unit.

compound.structure.string: CC(C)n1ncc2c(C(=O)Nc3cccc(C(N)=O)c3)cc(-c3cccs3)nc21
readout.value: 6.3

compound.structure.string: CC(C)n1ncc2c(C(=O)N3CCc4cc(F)ccc43)cc(-c3cccs3)nc21
readout.value: 10

compound.structure.string: CC(C)n1ncc2c(C(=O)Nc3cc(C(N)=O)ccc3F)cc(-c3cccs3)nc21
readout.value: 5

Consider the compound shown here: "CC(C)n1ncc2c(C(=O)Nc3cc(S(N)(=O)=O)ccc3F)cc(-c3cccs3)nc21" What is its recorded EC50?
6.3

###

CC50: recorded values
experiment.notes: Cytotoxicity against human HeLa-RW cells after 3 to 4 days by crystal violet staining-based spectrophotometric method
Format: cell-based
cond: hela-rw
Quick note: give the figure in µM, leave out the unit.

Solved entries (count: 3):
compound.structure.string: CC(C)n1ncc2c(C(=O)Nc3cncnc3)cc(-c3cccs3)nc21
CC50 (µM): 18

compound.structure.string: CC(C)n1ncc2c(C(=O)Nc3ccccc3F)cc(-c3ccccc3)nc21
CC50 (µM): 37.5

compound.structure.string: CC(C)n1ncc2c(C(=O)Nc3ccncn3)cc(-c3cccs3)nc21
CC50 (µM): 20

Consider the compound shown here: "CC(C)n1ncc2c(C(=O)Nc3ccncc3)cc(-c3cccs3)nc21" What is its recorded CC50?
6

Consider the compound shown here: "CC(C)n1ncc2c(C(=O)Nc3ncccn3)cc(-c3ccsc3)nc21" What is its recorded CC50?
40

Consider the compound shown here: "CC(C)n1ncc2c(C(=O)Nc3cccc(S(=O)(=O)N(C)C)c3)cc(-c3cccs3)nc21" What is its recorded CC50?
12

Consider the compound shown here: "CC(C)n1ccc2c(C(=O)Nc3ccccn3)cc(-c3cccs3)nc21" What is its recorded CC50?
18.8

Consider the compound shown here: "CC(C)n1ncc2c(C(=O)Nc3ccc(S(C)(=O)=O)cc3)cc(-c3cccs3)nc21" What is its recorded CC50?
200

###

experiment.notes: Selectivity index, ratio of CC50 for monkey LLC-MK2 cells to EC50 for Enterovirus A71
Format: toxicity
cond: read-out: Ratio CC50/EC50
recorded.endpoint: selectivity ratio
Returns: the value as a bare number; no unit string appended.

Solved entries (count: 3):
compound.structure.string: CC(C)n1ncc2c(C(=O)Nc3ccc(F)c(S(N)(=O)=O)c3)cc(-c3cccs3)nc21
selectivity ratio: 62.5

compound.structure.string: CC(C)n1ccc2c(C(=O)Nc3cccnc3)cc(-c3cccs3)nc21
selectivity ratio: 31.3

compound.structure.string: CC(C)n1ncc2c(C(=O)Nc3cc(F)ccc3F)cc(-c3cccs3)nc21
selectivity ratio: 28.6

Consider the compound shown here: "CC(C)n1ncc2c(C(=O)Nc3ccccn3)cc(-c3ccsc3)nc21" What is its recorded selectivity ratio?
31.3

Consider the compound shown here: "CNS(=O)(=O)c1cccc(NC(=O)c2cc(-c3cccs3)nc3c2cnn3C(C)C)c1" What is its recorded selectivity ratio?
35.7

Consider the compound shown here: "CC(C)n1ncc2c(C(=O)Nc3ccccn3)cc(C3CC3)nc21" What is its recorded selectivity ratio?
5.3

Consider the compound shown here: "CC(C)n1ncc2c(C(=O)Nc3cncnc3)cc(-c3cccs3)nc21" What is its recorded selectivity ratio?
50

Consider the compound shown here: "CC(C)n1ncc2c(C(=O)Nc3ncccn3)cc(-c3ccsc3)nc21" What is its recorded selectivity ratio?
41.7

Consider the compound shown here: "CC(C)n1ncc2c(C(=O)Nc3ccccc3F)cc(-c3cncs3)nc21" What is its recorded selectivity ratio?
27

Consider the compound shown here: "CC(C)n1ncc2c(C(=O)Nc3cccc(F)c3F)cc(-c3cccs3)nc21" What is its recorded selectivity ratio?
25

Consider the compound shown here: "CC(C)n1ncc2c(C(=O)N3CCc4cccnc43)cc(-c3cccs3)nc21" What is its recorded selectivity ratio?
4

###

System: LLC-MK2
experiment.notes: Cytotoxicity against monkey LLC-MK2 cells after 3 to 4 days by crystal violet staining-based spectrophotometric method
Format: cell-based, Macaca mulatta
cond: rhesus monkey
CC50: recorded values
Quick note: give the figure in µM, leave out the unit.

Solved entries (count: 6):
compound.structure.string: CC(C)n1ncc2c(C(=O)Nc3ccc(F)cc3)cc(C3CC3)nc21
target.or.test.system: LLC-MK2
measurement.units: µM
readout.value: 12.5

compound.structure.string: CC(C)n1ncc2c(NC(=O)c3ccc(F)cc3)cc(-c3cccs3)nc21
target.or.test.system: LLC-MK2
measurement.units: µM
readout.value: 50

compound.structure.string: CC(C)n1ncc2c(C(=O)Nc3cc(C(N)=O)ccc3F)cc(-c3cccs3)nc21
target.or.test.system: LLC-MK2
measurement.units: µM
readout.value: 25

compound.structure.string: CC(C)n1ncc2c(C(=O)Nc3cccnc3)cc(-c3ccsc3)nc21
target.or.test.system: LLC-MK2
measurement.units: µM
readout.value: 37

compound.structure.string: CC(C)n1ncc2c(C(=O)Nc3ccccc3F)cc(-c3ccncc3)nc21
target.or.test.system: LLC-MK2
measurement.units: µM
readout.value: 45

compound.structure.string: CC(C)n1ncc2c(C(=O)Nc3cccc(S(N)(=O)=O)c3)cc(-c3cccs3)nc21
target.or.test.system: LLC-MK2
measurement.units: µM
readout.value: 25

Consider the molecule shown here: "CC(C)n1ncc2c(C(=O)N3CCc4cccnc43)cc(-c3cccs3)nc21" What is its recorded CC50?
50

Consider the molecule shown here: "CC(C)n1ncc2c(C(=O)Nc3cc(S(N)(=O)=O)ccc3F)cc(-c3cccs3)nc21" What is its recorded CC50?
25

Consider the molecule shown here: "CC(C)n1ncc2c(C(=O)Nc3ccccn3)cc(-c3ccccc3)nc21" What is its recorded CC50?
12.5

Consider the molecule shown here: "CC(C)n1ncc2c(C(=O)Nc3ncccn3)cc(-c3cccs3)nc21" What is its recorded CC50?
75

Consider the molecule shown here: "CC(C)n1ncc2c(C(=O)Nc3ccc(F)c(S(N)(=O)=O)c3)cc(-c3cccs3)nc21" What is its recorded CC50?
50

Consider the molecule shown here: "CC(C)n1ncc2c(C(=O)Nc3ccccn3)cc(C3CC3)nc21" What is its recorded CC50?
25

Consider the molecule shown here: "CC(C)n1ncc2c(C(=O)Nc3ccncn3)cc(-c3cccs3)nc21" What is its recorded CC50?
50

Consider the molecule shown here: "CC(C)n1ncc2c(C(=O)Nc3ccccc3S(N)(=O)=O)cc(-c3cccs3)nc21" What is its recorded CC50?
25

Consider the molecule shown here: "CC(C)n1ncc2c(C(=O)Nc3cccc(F)c3F)cc(-c3cccs3)nc21" What is its recorded CC50?
75

Consider the molecule shown here: "CC(C)n1ncc2c(C(=O)Nc3cc(F)ccc3F)cc(-c3cccs3)nc21" What is its recorded CC50?
100

Consider the molecule shown here: "CC(C)n1ncc2c(C(=O)Nc3ccc(S(C)(=O)=O)cc3)cc(-c3cccs3)nc21" What is its recorded CC50?
50

###

Tested on: Coxsackievirus B3
experiment.notes: Antiviral activity against Coxsackievirus B3 infected in human HeLa-RW cells assessed as protection against virus-induced cytopathic effect after 3 to 4 days by crystal violet staining-based spectrophotometric method
Assay type: functional, cell-based
cond: Enterovirus B
recorded.endpoint: log10(EC50) (log10 of the value in nM)
Could you please treat all values as log10 of EC50 in nM?

Solved entries (count: 5):
compound.structure.string: CC(C)n1ncc2c(C(=O)Nc3ncccn3)cc(-c3cccs3)nc21
log10(EC50): 2.78
//
compound.structure.string: CC(C)n1ncc2c(C(=O)Nc3cccc(C(N)=O)c3)cc(-c3cccs3)nc21
log10(EC50): 2.85
//
compound.structure.string: CNS(=O)(=O)c1cccc(NC(=O)c2cc(-c3cccs3)nc3c2cnn3C(C)C)c1
log10(EC50): 2.70
//
compound.structure.string: CC(C)n1ncc2c(C(=O)Nc3ccc(F)cc3)cc(C3CC3)nc21
log10(EC50): 3.52
//
compound.structure.string: CC(C)n1ncc2c(C(=O)Nc3cc(F)ccc3F)cc(-c3cccs3)nc21
log10(EC50): 3.43

Request: log10(EC50), test system Coxsackievirus B3, entry "CC(C)n1ncc2c(C(=O)Nc3cccnc3)cc(-c3cccs3)nc21"
2.60

Request: log10(EC50), test system Coxsackievirus B3, entry "CC(C)n1ncc2c(C(=O)Nc3c(F)cc(F)cc3F)cc(-c3cccs3)nc21"
3.26

Request: log10(EC50), test system Coxsackievirus B3, entry "CC(C)n1ncc2c(C(=O)Nc3ccccc3F)cc(-c3cccs3)nc21"
3.15

Request: log10(EC50), test system Coxsackievirus B3, entry "CC(C)n1ncc2c(C(=O)Nc3ccc(F)cc3)cc(-c3ccsc3)nc21"
3.11

Request: log10(EC50), test system Coxsackievirus B3, entry "CC(C)n1ncc2c(C(=O)Nc3ccc(F)cc3)cc(-c3ccco3)nc21"
3.38
